The reported numbers originate from patent US20210212996A1.

- PROTOCOL_DESCRIPTION: Rat brain penetrance pharmacokinetics, brain to plasma ratio after oral dosing
- Format: in vivo, male Sprague-Dawley rats
- CONDITIONS_USED: male, Sprague-Dawley, rat, in vivo, 3 mg/kg, time point 12.0, individual rats; read-out: Plasma Conc.
ENDPOINT_NAME: concentration at 12 h (ng/mL)
Hi! Could you send only the number? It should be in ng/mL, unit omitted.

// recorded concentration at 12 h for CCc1oc(-c2ccc(OC)cc2)nc1CCOc1ccc2c(c1)CC[C@H]2CC(=O)[O-].[Na+] : 345

====

- PROTOCOL_DESCRIPTION: Rat brain penetrance pharmacokinetics, brain to plasma ratio after oral dosing
- Type: in vivo, male Sprague-Dawley rats
- CONDITIONS_USED: male, Sprague-Dawley, rat, in vivo; 3 mg/kg oral; read-out: plasma exposure AUClast
ENDPOINT_NAME: AUC(0-t)
Report field: quantity (unit follows the number).

Record CCc1oc(-c2ccc(OC)cc2)nc1CCOc1ccc2c(c1)CC[C@H]2CC(=O)[O-].[Na+] . Reported AUC(0-t): 9570 ng·h/mL

====

- PROTOCOL_DESCRIPTION: Caco-2 permeability with and without P-gp inhibitor verapamil
- CONDITIONS_USED: human, Caco-2
ENDPOINT_NAME: Papp

Input CCc1oc(-c2ccc(OC)cc2)nc1CCOc1ccc2c(c1)CC[C@H]2CC(=O)[O-].[Na+] [Example 11] . Output Papp: 114 ×10⁻⁶ cm/s

====

- PROTOCOL_DESCRIPTION: Rat brain penetrance pharmacokinetics, brain to plasma ratio after oral dosing
- Assay type: in vivo, male Sprague-Dawley rats
- CONDITIONS_USED: male, Sprague-Dawley, rat, plasma, oral, 3 mg/kg; time point 3.0, individual rats; read-out: Plasma Conc.
ENDPOINT_NAME: concentration at 3 h (ng/mL)
Write the answer as a number in ng/mL, unit excluded.

The measured concentration at 3 h associated with CCc1oc(-c2ccc(OC)cc2)nc1CCOc1ccc2c(c1)CC[C@H]2CC(=O)[O-].[Na+] [Example 11] reads 910

====

- SUBJECT_OF_TEST: human PPARδ (Homo sapiens, UniProt Q03181)
- Construct: expressed in transfected cells; host or cells: CV-1 cells (transient transfection)
- Sequence (Q03181 whole entry): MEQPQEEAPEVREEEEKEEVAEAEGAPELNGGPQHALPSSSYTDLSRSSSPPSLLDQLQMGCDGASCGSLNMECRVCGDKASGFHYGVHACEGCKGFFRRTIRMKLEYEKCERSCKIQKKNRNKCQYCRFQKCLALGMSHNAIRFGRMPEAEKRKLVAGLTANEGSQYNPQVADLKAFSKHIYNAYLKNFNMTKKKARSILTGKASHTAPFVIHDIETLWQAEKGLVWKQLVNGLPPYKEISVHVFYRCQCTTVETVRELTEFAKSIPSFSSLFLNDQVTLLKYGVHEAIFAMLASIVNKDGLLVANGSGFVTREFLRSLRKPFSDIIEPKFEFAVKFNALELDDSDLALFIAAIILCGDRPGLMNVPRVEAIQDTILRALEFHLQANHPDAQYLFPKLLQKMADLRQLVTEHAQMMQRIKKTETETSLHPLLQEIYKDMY
- PROTOCOL_DESCRIPTION: Human PPAR activation in transient transfection study, transfected CV-1 cells (delta subtype)
- Assay type: cell-based
- CONDITIONS_USED: Lot B, GLP Nonclinical Studies; read-out: EC50 PPARδ
ENDPOINT_NAME: EC50 (µM)
Numeric only. Scale: µM

Considering CCc1oc(-c2ccc(OC)cc2)nc1CCOc1ccc2c(c1)CC[C@H]2CC(=O)[O-].[Na+] [Example 11] , its EC50 with human PPARδ (Homo sapiens, UniProt Q03181) was recorded as 0.027

====

- PROTOCOL_DESCRIPTION: Rat brain penetrance pharmacokinetics, brain to plasma ratio after oral dosing
- Assay type: in vivo, male Sprague-Dawley rats
- CONDITIONS_USED: male, Sprague-Dawley, rat, in vivo; 3 mg/kg oral
ENDPOINT_NAME: half-life (h)
Give the value in h but do not write h after it.

The compound identified as CCc1oc(-c2ccc(OC)cc2)nc1CCOc1ccc2c(c1)CC[C@H]2CC(=O)[O-].[Na+] [Example 11] registered its half-life at 3.33

====

- PROTOCOL_DESCRIPTION: Rat brain penetrance pharmacokinetics, brain to plasma ratio after oral dosing
- Type: in vivo, male Sprague-Dawley rats
- CONDITIONS_USED: male, Sprague-Dawley, rat, in vivo, po, 3 mg/kg, 5 hours, 3 mg/kg oral; read-out: Brain/Plasma ratio
ENDPOINT_NAME: Kp at 5 h
Answer with a number only.

Documented Kp at 5 h of CCc1oc(-c2ccc(OC)cc2)nc1CCOc1ccc2c(c1)CC[C@H]2CC(=O)[O-].[Na+] : 0.171

====

- PROTOCOL_DESCRIPTION: Rat brain penetrance pharmacokinetics, brain to plasma ratio after oral dosing
- Format: in vivo, male Sprague-Dawley rats
- CONDITIONS_USED: male, Sprague-Dawley, rat, in vivo, 3 mg/kg, time point 5.0, individual rats; read-out: Plasma Conc.
ENDPOINT_NAME: concentration at 5 h (ng/mL)
# value in ng/mL; strip the unit string

concentration at 5 h reported for this compound CCc1oc(-c2ccc(OC)cc2)nc1CCOc1ccc2c(c1)CC[C@H]2CC(=O)[O-].[Na+] [Example 11] : 1260

====

- PROTOCOL_DESCRIPTION: Rat brain penetrance pharmacokinetics, brain to plasma ratio after oral dosing
- Type: in vivo, male Sprague-Dawley rats
- CONDITIONS_USED: male, Sprague-Dawley, rat, in vivo, 3 mg/kg, time point 12.0, individual rats; read-out: Brain Tissue Cone.
ENDPOINT_NAME: concentration at 12 h
Param answer (str): number followed by unit.

Query CCc1oc(-c2ccc(OC)cc2)nc1CCOc1ccc2c(c1)CC[C@H]2CC(=O)[O-].[Na+] yields concentration at 12 h of 104 ng/g

====

- SUBJECT_OF_TEST: human PPARα (Homo sapiens, UniProt Q07869)
- Construct: expressed in transfected cells; host or cells: CV-1 cells (transient transfection)
- Sequence (Q07869 1-468): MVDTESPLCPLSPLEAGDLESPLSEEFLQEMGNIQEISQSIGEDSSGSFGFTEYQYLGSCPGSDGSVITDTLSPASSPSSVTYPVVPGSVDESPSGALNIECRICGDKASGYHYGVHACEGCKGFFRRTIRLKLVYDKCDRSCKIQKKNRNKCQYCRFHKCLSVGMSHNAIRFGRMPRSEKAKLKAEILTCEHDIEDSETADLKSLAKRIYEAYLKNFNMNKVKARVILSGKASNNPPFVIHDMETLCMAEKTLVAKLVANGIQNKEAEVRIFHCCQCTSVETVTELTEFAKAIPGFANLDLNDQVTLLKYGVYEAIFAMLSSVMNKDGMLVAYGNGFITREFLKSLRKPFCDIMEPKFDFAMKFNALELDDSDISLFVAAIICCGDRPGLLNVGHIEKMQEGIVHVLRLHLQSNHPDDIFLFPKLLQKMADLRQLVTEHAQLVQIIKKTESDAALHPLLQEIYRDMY
- PROTOCOL_DESCRIPTION: Human PPAR activation in transient transfection study, transfected CV-1 cells (alpha subtype)
- Type: cell-based
- CONDITIONS_USED: Lot A, Non GMP; read-out: EC50 PPARα
ENDPOINT_NAME: pEC50
Recall that pEC50 is obtained by taking minus log10 of the concentration measured in molar.

Tested on human PPARα (Homo sapiens, UniProt Q07869): CCc1oc(-c2ccc(OC)cc2)nc1CCOc1ccc2c(c1)CC[C@H]2CC(=O)[O-].[Na+] . Observed pEC50: 6.31

====

- PROTOCOL_DESCRIPTION: Rat brain penetrance pharmacokinetics, brain to plasma ratio after oral dosing
- Type: in vivo, male Sprague-Dawley rats
- CONDITIONS_USED: male, Sprague-Dawley, rat, in vivo, po, 3 mg/kg, 1 hour, 3 mg/kg oral
ENDPOINT_NAME: Kp at 1 h
Give the figure only, with no unit attached.

Summary for this compound, CCc1oc(-c2ccc(OC)cc2)nc1CCOc1ccc2c(c1)CC[C@H]2CC(=O)[O-].[Na+] : Kp at 1 h is 0.361

====

- PROTOCOL_DESCRIPTION: Rat brain penetrance pharmacokinetics, brain to plasma ratio after oral dosing
- Format: in vivo, male Sprague-Dawley rats
- CONDITIONS_USED: male, Sprague-Dawley, rat, brain, oral, 3 mg/kg; time point 7.0, individual rats; read-out: Brain Tissue Cone.
- Experimental: Blood brain penetration studies can be carried out as described in recent publications and as is known by those skilled in the art. […] This is measured in pre-clinical animal models by determining plasma concentration vs time curves as in a standard pharmacokinetic study, and in addition harvesting brains and determining whole brain concentrations over time. […]
ENDPOINT_NAME: concentration at 7 h (ng/g)
Entry rule: numbers only, all in ng/g.

Reported concentration at 7 h for CCc1oc(-c2ccc(OC)cc2)nc1CCOc1ccc2c(c1)CC[C@H]2CC(=O)[O-].[Na+] was 130

====

- PROTOCOL_DESCRIPTION: Rat brain penetrance pharmacokinetics, brain to plasma ratio after oral dosing
- Assay type: in vivo, male Sprague-Dawley rats
- CONDITIONS_USED: male, Sprague-Dawley, rat, in vivo, 3 mg/kg, time point 5.0, individual rats; read-out: Brain Tissue Cone.
ENDPOINT_NAME: concentration at 5 h
Please answer in the form of a number followed by its unit of measurement.

Looking up CCc1oc(-c2ccc(OC)cc2)nc1CCOc1ccc2c(c1)CC[C@H]2CC(=O)[O-].[Na+] , I found its concentration at 5 h recorded as 208 ng/g
